tested on: LC-2-ad; experiment: relative viability (nuclei count vs DMSO), 5 days (fraction); higher = more cells survive; conditions: first compound 0.2 µM
Give measured relative viability for each item. Keep answers brief.
Form field (numeric): enter value without unit.

Provide measured relative viability value, entry: Cc1csc(=NC2CCCCC2)n1/N=C/c1ccc(O)c(O)c1O [MIM1] + N=C(N)NC(=N)NCCc1ccccc1 [Phenformin] (partner 250 µM) 0.679

Tell me relative viability reported for CN1CCN(CCOc2cc(OC3CCOCC3)c3c(Nc4c(Cl)ccc5c4OCO5)ncnc3c2)CC1 [Saracatinib] + CC(=O)c1c(C)c2cnc(Nc3ccc(N4CCNCC4)cn3)nc2n(C2CCCC2)c1=O [Palbociclib] (partner 0.5 µM) 0.448

Return reported relative viability. Input compound: Cc1csc(=NC2CCCCC2)n1/N=C/c1ccc(O)c(O)c1O [MIM1] + CC(=O)c1c(C)c2cnc(Nc3ccc(N4CCNCC4)cn3)nc2n(C2CCCC2)c1=O [Palbociclib] (partner 0.5 µM) 0.463

Using known records, supply relative viability for CCNC(=O)c1noc(-c2cc(C(C)C)c(O)cc2O)c1-c1ccc(CN2CCOCC2)cc1 [Luminespib] + COc1cccc2cc(-c3nc([C@H]4CC[C@H](C(=O)O)CC4)n4ncnc(N)c34)[nH]c12 [OSI-027] (partner 0.5 µM) 0.28

Give reported relative viability value for Cc1csc(=NC2CCCCC2)n1/N=C/c1ccc(O)c(O)c1O [MIM1] + Cc1cc(Nc2cc(N3CCN(C)CC3)nc(Sc3ccc(NC(=O)C4CC4)cc3)n2)n[nH]1 [Tozasertib] (partner 0.1 µM) 0.546

Kindly indicate its recorded relative viability. Item: CN1CCN(CCOc2cc(OC3CCOCC3)c3c(Nc4c(Cl)ccc5c4OCO5)ncnc3c2)CC1 [Saracatinib] + Nc1nc2[nH]cc(CCc3ccc(C(=O)N[C@@H](CCC(=O)O)C(=O)O)cc3)c2c(=O)[nH]1 [Pemetrexed] (partner 0.2 µM) 0.282

---

tested on: NCI-H1395; assay: relative viability (nuclei count vs DMSO), 5 days (fraction); higher = more cells survive; conditions: first compound 0.6325 µM
Property Name: relative viability
The response must contain the number and no unit.

Answer with reported relative viability of Cc1csc(=NC2CCCCC2)n1/N=C/c1ccc(O)c(O)c1O [MIM1] + CC(=O)Nc1cccc(-n2c(=O)n(C3CC3)c(=O)c3c(Nc4ccc(I)cc4F)n(C)c(=O)c(C)c32)c1 [Trametinib] (partner 0.02 µM) 1.04

Find the measured relative viability of CN1CCN(CCOc2cc(OC3CCOCC3)c3c(Nc4c(Cl)ccc5c4OCO5)ncnc3c2)CC1 [Saracatinib] + O=C(CCCCCCC(=O)Nc1ccccc1)NO [Vorinostat] (partner 1 µM) and report it. 0.706

For the molecule CN1CCN(CCOc2cc(OC3CCOCC3)c3c(Nc4c(Cl)ccc5c4OCO5)ncnc3c2)CC1 [Saracatinib] + CC(=O)Nc1cccc(-n2c(=O)n(C3CC3)c(=O)c3c(Nc4ccc(I)cc4F)n(C)c(=O)c(C)c32)c1 [Trametinib] (partner 0.02 µM) , report relative viability. 0.953

Let me know recorded relative viability for CN1CCN(CCOc2cc(OC3CCOCC3)c3c(Nc4c(Cl)ccc5c4OCO5)ncnc3c2)CC1 [Saracatinib] + N=C(N)NC(=N)NCCc1ccccc1 [Phenformin] (partner 250 µM) , thanks. 0.474

State its relative viability: Cc1csc(=NC2CCCCC2)n1/N=C/c1ccc(O)c(O)c1O [MIM1] + N=C(N)NC(=N)NCCc1ccccc1 [Phenformin] (partner 250 µM) 0.444

Cited source: the supplement of paper PMC10307832
